Origin of values: patent US20240158446A1

# target.or.test.system: GDP-bound KRAS wild-type protein (Homo sapiens, UniProt P01116)
# Sequence (P01116 whole entry): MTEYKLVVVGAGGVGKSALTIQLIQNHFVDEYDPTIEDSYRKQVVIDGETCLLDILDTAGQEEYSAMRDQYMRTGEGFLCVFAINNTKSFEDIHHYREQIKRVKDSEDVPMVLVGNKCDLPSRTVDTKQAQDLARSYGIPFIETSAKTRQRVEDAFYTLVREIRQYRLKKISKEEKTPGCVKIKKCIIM
# assay.procedure: Binding to KRAS by surface plasmon resonance (SPR), Single Cycle Kinetics
# experimental.conditions: SPR, Single Cycle Kinetics, GDP-bound KRAS wild-type protein; read-out: KRAS KD
pKd: −log10 of the molar value. Where a SMILES comes first, the peptide text is derived from it. Bridges are numbered along the chain shown (N, C = ends). [ ]: non-standard residue; d: D form. The star is where a group is joined. hPhe(3-Cl-4-CF3) = N[C@@H](CCc1ccc(C(F)(F)F)c(Cl)c1)C(=O)O; NPrPhe(4-CF3) = CCCN[C@@H](Cc1ccc(C(F)(F)F)cc1)C(=O)O; NMeGly(cPent) = CN[C@H](C(=O)O)C1CCCC1; NMeD = CN[C@@H](CC(=O)O)C(=O)O; Ac4c(3-oxa) = NC1(C(=O)O)COC1; NMeL = CN[C@@H](CC(C)C)C(=O)O; Morpholide = C1CN(*)CCO1; Sar = CNCC(=O)O

{"columns": ["molecule", "target.or.test.system", "pKd"],
 "data": [
  ["CCCN(C)C(=O)[C@@H]1CC(=O)N(C)[C@@H](CC2CC2)C(=O)N[C@@H]([C@@H](C)CC)C(=O)N(C)CC(=O)N(C)[C@H]2C/C=C\\CCN(C2=O)[C@@H](Cc2ccc(C(F)(F)F)cc2)C(=O)N(C)CC(=O)N[C@@H](CCc2cc(F)c(C(F)(F)F)c(F)c2)C(=O)N2C[C@H](F)C[C@H]2C(=O)NC2(CC(C)(C)C2)C(=O)N(C)[C@@H](C2CCCC2)C(=O)N1C", "GDP-bound KRAS wild-type protein (Homo sapiens, UniProt P01116)", 10.18],
  ["CCCN1C(=O)CN(C)C(=O)CN(C)C(=O)[C@H]([C@@H](C)CC)NC(=O)[C@H](CC(C)C)N(C)C(=O)C[C@@H](C(=O)N2CCOCC2)N(C)C(=O)[C@H](C2CCCC2)N(C)C(=O)C2(COC2)NC(=O)[C@@H]2CCCN2C(=O)[C@H](CCc2ccc(C(F)(F)F)c(Cl)c2)NC(=O)CN(C)C(=O)[C@@H]1Cc1ccc(C(F)(F)F)cc1 [PP1922] ([NMeL]I[Sar][Sar][NPrPhe(4-CF3)][Sar][hPhe(3-Cl-4-CF3)]P[Ac4c(3-oxa)][NMeGly(cPent)][NMeD]-Morpholide; lactam N-11)", "GDP-bound KRAS wild-type protein (Homo sapiens, UniProt P01116)", 9.64],
  ["CCO[C@@H]1C[C@H]2C(=O)NC3(CCC3)C(=O)N(C)[C@@H](C3CCCC3)C(=O)N(C)[C@H](C(=O)N(C)C)CC(=O)N(C)[C@@H](CC(F)F)C(=O)N[C@@H]([C@@H](C)CC)C(=O)N(C)CC(=O)N(C)[C@H]3CCCCCN(C3=O)[C@@H](Cc3ccc(F)cc3)C(=O)N(C)CC(=O)N[C@@H](CCc3cc(F)c(C(F)(F)F)c(F)c3)C(=O)N2C1", "GDP-bound KRAS wild-type protein (Homo sapiens, UniProt P01116)", 10.25]
]}

* * *

# target.or.test.system: GDP-bound KRAS wild-type protein (Homo sapiens)
# assay.procedure: Binding to KRAS by surface plasmon resonance (SPR), Single Cycle Kinetics
# experimental.conditions: SPR Single Cycle Kinetics, GDP-bound KRAS wild-type protein, 1:1 binding model; read-out: KRAS KD
Where a SMILES comes first, the peptide text is derived from it. Bridges are numbered along the chain shown (N, C = ends). [ ]: non-standard residue; d: D form. The star is where a group is joined. hPhe(3,5-F2-4-CF3) = N[C@@H](CCc1cc(F)c(C(F)(F)F)c(F)c1)C(=O)O; hPhe(3-Cl-4-CF3) = N[C@@H](CCc1ccc(C(F)(F)F)c(Cl)c1)C(=O)O; NPrPhe(4-CF3) = CCCN[C@@H](Cc1ccc(C(F)(F)F)cc1)C(=O)O; NMeGly(cPent) = CN[C@H](C(=O)O)C1CCCC1; Hyp = O=C(O)[C@@H]1C[C@@H](O)CN1; Gly(cBu) = N[C@H](C(=O)O)C1CCC1; NMeD = CN[C@@H](CC(=O)O)C(=O)O; NMeL = CN[C@@H](CC(C)C)C(=O)O; Morpholide = C1CN(*)CCO1; Ac5c = NC1(C(=O)O)CCCC1; Aze = O=C(O)[C@@H]1CCN1; NEtG = CCNCC(=O)O; Sar = CNCC(=O)O
Listing of recorded Kd by entry.

{"columns": ["compound", "Kd"],
 "data": [
  ["CCCN1C(=O)CN(C)C(=O)CN(C)C(=O)[C@H]([C@@H](C)CC)NC(=O)[C@H](CC(C)C)N(C)C(=O)C[C@@H](C(=O)N2CCOCC2)N(C)C(=O)[C@H](C2CCCC2)N(C)C(=O)C2(CCCC2)NC(=O)[C@@H]2CCCN2C(=O)[C@H](CCc2cc(F)c(C(F)(F)F)c(F)c2)NC(=O)CN(C)C(=O)[C@@H]1Cc1ccc(C(F)(F)F)cc1 [PP0753] ([NMeL]I[Sar][Sar][NPrPhe(4-CF3)][Sar][hPhe(3,5-F2-4-CF3)]P[Ac5c][NMeGly(cPent)][NMeD]-Morpholide; lactam N-11)", "0.14 nM"],
  ["CCCN1C(=O)CN(C)C(=O)CN(C)C(=O)[C@H](C2CCC2)NC(=O)[C@H](CC(C)C)N(C)C(=O)C[C@@H](C(=O)N2CCOCC2)N(C)C(=O)[C@H](C2CCCC2)N(C)C(=O)C2(CCCC2)NC(=O)[C@@H]2CCCN2C(=O)[C@H](CCc2ccc(C(F)(F)F)c(Cl)c2)NC(=O)CN(C)C(=O)[C@@H]1Cc1ccc(C(F)(F)F)cc1 [PP0250] ([NMeL][Gly(cBu)][Sar][Sar][NPrPhe(4-CF3)][Sar][hPhe(3-Cl-4-CF3)]P[Ac5c][NMeGly(cPent)][NMeD]-Morpholide; lactam N-11)", "0.12 nM"],
  ["CCCN1C(=O)CN(C)C(=O)[C@@H]2CCN2C(=O)[C@H]([C@@H](C)CC)NC(=O)[C@H](CC(C)C)N(C)C(=O)C[C@@H](C(=O)N2CCOCC2)N(C)C(=O)[C@H](C2CCCC2)N(C)C(=O)C2(CCCC2)NC(=O)[C@@H]2CCCN2C(=O)[C@H](CCc2cc(F)c(C(F)(F)F)c(F)c2)NC(=O)CN(C)C(=O)[C@@H]1Cc1ccc(C(F)(F)F)cc1 [PP0770] ([NMeL]I[Aze][Sar][NPrPhe(4-CF3)][Sar][hPhe(3,5-F2-4-CF3)]P[Ac5c][NMeGly(cPent)][NMeD]-Morpholide; lactam N-11)", "0.84 nM"],
  ["CCCN1C(=O)CN(C)C(=O)CN(CC)C(=O)[C@H]([C@@H](C)CC)NC(=O)[C@H](CC(C)C)N(C)C(=O)C[C@@H](C(=O)N(C)C)NC(=O)[C@H](C2CCCC2)N(C)C(=O)C2(CCCC2)NC(=O)[C@@H]2C[C@@H](OCC)CN2C(=O)[C@H](CCc2ccc(C(F)(F)F)c(Cl)c2)NC(=O)CN(C)C(=O)[C@@H]1Cc1ccc(C(F)(F)F)cc1 [PP0371] ([NMeL]I[NEtG][Sar][NPrPhe(4-CF3)][Sar][hPhe(3-Cl-4-CF3)][Hyp](Et)[Ac5c][NMeGly(cPent)]D-NMe2; lactam N-11)", "0.48 nM"]
]}

* * *

Listing of recorded IC50 by entry.
# Tested on: human lung cancer strain NCI-H441;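 note: cell proliferation inhibition after four days measured by CellTiter-Glo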
# assay.procedure: cells
# experimental.conditions: NCI-H441, 96 h, read-out: NCI-H441 IC50 (nM), NCI-H441 cell proliferation, 4 days, CellTiter-Glo
*1 amine or outer side, *2 acyl side, *3 side chain or, on linkers, in order; H or OH if unused. Where a SMILES comes first, the peptide text is derived from it. Bridges are numbered along the chain shown (N, C = ends). [ ]: non-standard residue; d: D form. The star is where a group is joined. hPhe(3-Cl-4-CF3) = N[C@@H](CCc1ccc(C(F)(F)F)c(Cl)c1)C(=O)O; X6 = CCCN([C@@H](COCCC(C)C)C(=O)[*:2])[*:1]; NMeGly(cPent) = CN[C@H](C(=O)O)C1CCCC1; NMeD = CN[C@@H](CC(=O)O)C(=O)O; NMeL = CN[C@@H](CC(C)C)C(=O)O; Morpholide = C1CN(*)CCO1; Ac4c = NC1(C(=O)O)CCC1; Sar = CNCC(=O)O

{"columns": ["molecule", "IC50"],
 "data": [
  ["CCO[C@@H]1C[C@H]2C(=O)NC3(CC(C)(C)C3)C(=O)N(C)[C@@H](C3CCCC3)C(=O)N(C)[C@H](C(=O)N3CCCCC3)CC(=O)N(C)[C@@H](CC)C(=O)N[C@@H]([C@@H](C)CC)C(=O)N(C)CC(=O)N(C)[C@H]3C/C=C\\CCN(C3=O)[C@@H](Cc3ccc(C(F)(F)F)cc3)C(=O)N(C)CC(=O)N[C@@H](CCc3cc(F)c(C(F)(F)F)c(F)c3)C(=O)N2C1 [PP1945]", "33.8 nM"],
  ["CCCN1C(=O)CN(C)C(=O)CN(C)C(=O)[C@H]([C@@H](C)CC)NC(=O)[C@H](CC(C)C)N(C)C(=O)C[C@@H](C(=O)N2CCOCC2)N(C)C(=O)[C@H](C2CCCC2)N(C)C(=O)C2(CCC2)NC(=O)[C@@H]2CCCN2C(=O)[C@H](CCc2ccc(C(F)(F)F)c(Cl)c2)NC(=O)CN(C)C(=O)[C@@H]1COCCC(C)C [PP1817] ([NMeL]I[Sar][Sar][X6][Sar][hPhe(3-Cl-4-CF3)]P[Ac4c][NMeGly(cPent)][NMeD]-Morpholide; lactam N-11)", "20.4 nM"],
  ["CCCN(C)C(=O)[C@@H]1CC(=O)N(C)[C@@H](C2CCC2)C(=O)N[C@@H]([C@@H](C)CC)C(=O)N(C)CC(=O)N(C)[C@H]2C/C=C\\CCN(C2=O)[C@@H](Cc2ccc(C(F)(F)F)cc2)C(=O)N(C)CC(=O)N[C@@H](CCc2cc(F)c(C(F)(F)F)c(F)c2)C(=O)N2C[C@H](OCC)C[C@H]2C(=O)NC2(CCC2)C(=O)N(C)[C@@H](C2CCCC2)C(=O)N1C [PP1998]", "16.1 nM"],
  ["CCCN(C)C(=O)[C@@H]1CC(=O)N(C)[C@@H](CC(C)C)C(=O)N[C@@H](C2CCOCC2)C(=O)N(C)CC(=O)N(C)[C@H]2C/C=C\\CCN(C2=O)[C@@H](Cc2ccc(C(F)(F)F)cc2)C(=O)N(C)CC(=O)N[C@@H](CCc2cc(F)c(C(F)(F)F)c(F)c2)C(=O)N2C[C@H](OCC)C[C@H]2C(=O)NC2(CC(C)(C)C2)C(=O)N(C)[C@@H](C2CCCC2)C(=O)N1C [PP1923]", "68 nM"],
  ["CC[C@H](C)[C@@H]1NC(=O)[C@H](CC(C)C)N(C)C(=O)C[C@@H](C(=O)N(C)C)N(C)C(=O)[C@H](C2CCCC2)N(C)C(=O)C2(CCC2)NC(=O)[C@@H]2C[C@H](C)CN2C(=O)[C@H](CCc2ccc(C(F)(F)F)c(OC)c2)NC(=O)CN(C)C(=O)[C@H](Cc2ccc(C)cc2)N2CC/C=C\\C[C@@H](C2=O)N(C)C(=O)CN(C)C1=O [PP1865]", "36 nM"],
  ["CCO[C@@H]1C[C@H]2C(=O)NC3(CC(F)(F)C3)C(=O)N(C)[C@@H](C(CC)CC)C(=O)N3CCC[C@@H]3CC(=O)N(C)[C@@H](CC3CC3)C(=O)N[C@@H]([C@@H](C)CC)C(=O)N(C)CC(=O)N(C)[C@H]3C/C=C\\CCN(C3=O)[C@@H](Cc3ccc(C(F)(F)F)cc3)C(=O)N(C)CC(=O)N[C@@H](CCc3cc(F)c(C(F)(F)F)c(F)c3)C(=O)N2C1 [PP1614]", "54.2 nM"],
  ["CCCN(C)C(=O)[C@@H]1CC(=O)N(C)[C@@H](CC(F)F)C(=O)N[C@@H]([C@@H](C)CC)C(=O)N(C)CC(=O)N(C)[C@H]2C/C=C\\CCN(C2=O)[C@@H](Cc2ccc(C(F)(F)F)cc2)C(=O)N(C)CC(=O)N[C@@H](CCc2cc(F)c(C(F)(F)F)c(F)c2)C(=O)N2C[C@H](OCC)C[C@H]2C(=O)NC2(CC(C)(C)C2)C(=O)N(C)[C@@H](C2CCCC2)C(=O)N1C [PP2030]", "4.5 nM"],
  ["CC[C@H](C)[C@@H]1NC(=O)[C@H](C2CCC2)N(C)C(=O)C[C@@H](C(=O)N(C)CC)N(C)C(=O)[C@H](C2CCCC2)N(C)C(=O)C2(CC(C)(C)C2)NC(=O)[C@@H]2C[C@H](C)CN2C(=O)[C@H](CCc2ccc(C(F)(F)F)c(OC)c2)NC(=O)CN(C)C(=O)[C@H](Cc2ccc(C(F)(F)F)cc2)N2CC/C=C\\C[C@@H](C2=O)N(C)C(=O)CN(C)C1=O [PP2009]", "19.7 nM"],
  ["CCO[C@@H]1C[C@H]2C(=O)NC3(CC(C)(C)C3)C(=O)N(C)[C@@H](C3CCCC3)C(=O)N(C)[C@H](C(=O)N(C)C)CC(=O)N(CC)[C@@H](CC(C)C)C(=O)N[C@@H]([C@@H](C)CC)C(=O)NCC(=O)N(C)[C@H]3C/C=C\\CCN(C3=O)[C@@H](Cc3ccc(C(F)(F)F)cc3)C(=O)N(C)CC(=O)N[C@@H](CCc3cc(F)c(C(F)(F)F)c(F)c3)C(=O)N2C1 [PP1772]", "13.4 nM"],
  ["CCCN(C)C(=O)[C@@H]1CC(=O)N(C)[C@@H](CC)C(=O)N[C@@H]([C@@H](C)CC)C(=O)N(C)CC(=O)N(C)[C@H]2C/C=C\\CCN(C2=O)[C@@H](Cc2ccc(C(F)(F)F)cc2)C(=O)N(C)CC(=O)N[C@@H](CCc2cc(F)c(C(F)(F)F)c(F)c2)C(=O)N2C[C@H](OCC)C[C@H]2C(=O)NC2(CC(C)(C)C2)C(=O)N(C)[C@@H](C2CCCC2)C(=O)N1C [PP1670]", "6.7 nM"],
  ["CCCOC[C@H]1C(=O)N[C@@H]([C@@H](C)CC)C(=O)N(C)CC(=O)N(C)[C@H]2C/C=C\\CCN(C2=O)[C@@H](Cc2ccc(C(F)(F)F)cc2)C(=O)N(C)CC(=O)N[C@@H](CCc2cc(F)c(C(F)(F)F)c(F)c2)C(=O)N2C[C@H](F)C[C@H]2C(=O)NC2(CC(C)(C)C2)C(=O)N(C)[C@@H](C2CCCC2)C(=O)N(C)[C@H](C(=O)N(C)CCC)CC(=O)N1C [PP1698]", "5.1 nM"]
]}
